Examples of binders with documented pKd follow.
Target: T1, murine recombinant VCAM-1 (murine, UniProt P29533 25-698)
T1 construct: Bought recombinant protein (RnD Systems), immobilised on a CM5 chip for SPR; also called mVCAM-1; murine VCAM-1
T1 sequence (looked up): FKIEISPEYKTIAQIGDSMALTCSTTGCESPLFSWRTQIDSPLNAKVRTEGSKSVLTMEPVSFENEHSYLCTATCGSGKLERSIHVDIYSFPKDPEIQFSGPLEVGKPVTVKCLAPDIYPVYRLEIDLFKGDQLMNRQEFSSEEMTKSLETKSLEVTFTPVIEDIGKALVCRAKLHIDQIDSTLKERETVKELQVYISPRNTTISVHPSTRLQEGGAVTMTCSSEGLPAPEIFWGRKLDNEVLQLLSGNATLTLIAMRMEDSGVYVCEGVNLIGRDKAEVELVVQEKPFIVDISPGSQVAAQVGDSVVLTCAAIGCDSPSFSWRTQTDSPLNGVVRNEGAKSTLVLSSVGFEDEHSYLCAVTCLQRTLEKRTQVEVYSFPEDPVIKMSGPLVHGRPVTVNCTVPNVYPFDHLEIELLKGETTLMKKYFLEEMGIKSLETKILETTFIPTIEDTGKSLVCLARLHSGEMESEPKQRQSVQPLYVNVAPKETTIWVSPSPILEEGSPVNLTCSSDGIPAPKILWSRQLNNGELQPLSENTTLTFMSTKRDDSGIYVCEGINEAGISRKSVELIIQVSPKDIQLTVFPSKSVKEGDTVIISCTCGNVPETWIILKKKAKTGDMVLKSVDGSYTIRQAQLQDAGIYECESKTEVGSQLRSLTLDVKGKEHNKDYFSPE
Assay: SPR, Biacore 3000, recombinant mVCAM-1 immobilised on CM5 chip, 1:1 model
pKd: −log10 of the molar value.
parameter-measured: pKd

# binder, value-measured
rows = [
    ("cAbVCAM1-5 (VHH, Dromedary nanobody produced with a hexahistidine tag in E. coli; also called anti-VCAM-1 nanobody; not shown: hexahistidine tag) VHH: QVQLQESGGGSVQTGGSLRLSCAASGYTNSIMYMAWFRQAPGKKREGVAAIRFPDDSAYYAGSVKGRFTISHDNAKNTVYLQMNNLNPEDTAMYYCAARSSPYSFAWNDPSNYNYWGQGTQVTVSS", 8.70),
    ("cAbVCAM1-9 (VHH, Dromedary nanobody produced with a hexahistidine tag in E. coli; also called anti-VCAM-1 nanobody; not shown: hexahistidine tag) VHH: QVQLQESGGGLVQPGGSLRLSCAASGFTFSSYYMSWVRQAPGKGLEWVSGINVDGSNTYYADSVKGRFTISRDNAKNTLYLQMNSLKSEDTALYYCATGSGRDSYDCYSGSWCPKGQGTQVTVSS", 9.05),
    ("cAbVCAM1-8 (VHH, Dromedary nanobody produced with a hexahistidine tag in E. coli; also called anti-VCAM-1 nanobody; not shown: hexahistidine tag) VHH: QVQLQESGGGLVQPGGSLRLSCAASGFTFSNYYMTWVRRAPGKGLEWVSRINSDGSTLYLPSVKGRFTISRDNAKNTLYLQMNSLKSEDTGWYYCVEGKSSVRGQGTQVTVSS", 7.88),
    ("cAbVCAM1-3 (VHH, Dromedary nanobody produced with a hexahistidine tag in E. coli; also called anti-VCAM-1 nanobody; not shown: hexahistidine tag) VHH: QVQLQESGGGSVQAGGSLRLSCTASGFTYSSYYMSWVRQAPGKGLEWVSGINVDGSNTYYADSVKGRFTISRDNAKNTLYLQMNSLKSEDTALYYCATGSGRDSYDCYSGSWCPKGQGTQVTVSS", 8.62),
]
